Test system: SK-MEL-2
PROCEDURE DETAILS: NCI tumour cell line growth inhibition, 48 h
Activity calls are given as the source filed them. Rule as the data show it: active = GI50 up to about 1.1 µM and inactive = higher. Where a SMILES comes first, the peptide text is derived from it. [ ]: non-standard residue; d: D form. The star is where a group is joined. ξ: configuration not given here. Propanoyl(3-(4-MeO-Ph)) = COc1ccc(CCC(=O)*)cc1; Thr(3ξ) = CC(O)[C@H](N)C(=O)O; dNMeL = CN[C@H](CC(C)C)C(=O)O; OBn = c1ccc(CO*)cc1; ξLac = CC(O)C(=O)O
Outcomes: active, inactive

MOLECULE	TARGET OR SYSTEM	LABEL CLASS
Nc1ccc(Nc2c3ccccc3nc3ccccc23)cc1	SK-MEL-2	inactive
Cn1ccnc1C(c1nccn1C)C(C)(C)[N+](=O)[O-]	SK-MEL-2	inactive
Cc1ccc(S(=O)(=O)NC(=O)NC(C(=O)O)C(C)C)cc1 (stereo unspecified)	SK-MEL-2	inactive
C/C(=N\NC1=NCCN1)c1cn(C2=NCCN2)nc1C	SK-MEL-2	inactive
COc1ccc(CCC(=O)OC(C)[C@H](NC(=O)[C@@H](CC(C)C)N(C)C(=O)[C@@H]2CCCN2C(=O)C(C)O)C(=O)OCc2ccccc2)cc1 (stereo partly specified) (H-[ξLac]P[dNMeL][Thr(3ξ)](Propanoyl(3-(4-MeO-Ph)))-OBn)	SK-MEL-2	inactive
C/C1=C\[C@@H](O)C(=O)/C=C/C=C\c2csc(n2)[C@@H](C)NC(=O)C[C@@]2(CC1)[S+]([O-])SC(=O)[C@]2(C)O (stereo partly specified)	SK-MEL-2	active
CC(C)c1c(O)c(O)c2c(c1O)C(=O)C(O)=C1C(C)(C)CCC[C@@]12C	SK-MEL-2	inactive
C#CCn1c(=O)c(C)cn(/C(=C/C(=O)OCC)C(=O)OCC)c1=O	SK-MEL-2	inactive
CCN(CC)C(=S)SC1CCOP(=O)(N(CCCl)CCCl)N1C (stereo unspecified)	SK-MEL-2	inactive
Cc1ccc(OCC2=NN3C(=O)/C(=C\c4ccc([N+](=O)[O-])o4)SC3N2)cc1 (stereo unspecified)	SK-MEL-2	inactive
COC(=O)c1c(C)cccc1/C=C1\Cc2cc(C)cc(C)c2C1=O	SK-MEL-2	inactive
CCOc1ccc(/N=C/C=C(\Cl)c2ccc3ccccc3c2)cc1	SK-MEL-2	inactive
CCCCCCCCC(=O)NCCCNCCCNC(=O)CCCCCCCC	SK-MEL-2	inactive
CC(CO)(CO)/N=C/c1cc(I)cc(I)c1O	SK-MEL-2	inactive
O=C(Sc1c(-c2ccccc2)c(=O)n(-c2ccccc2)c(=S)n1-c1ccccc1)c1cccs1	SK-MEL-2	inactive
O=C(O)Cc1ccccc1	SK-MEL-2	inactive
N#CC1(Nc2ccc(-c3ccc(NC4(C#N)CCCC4)cc3)cc2)CCCC1	SK-MEL-2	inactive
ClC1=NSSC1(Cl)Cl	SK-MEL-2	inactive
CC(C)(C)/N=C\N(C=C(c1ccccc1)c1ccccc1)C1CCCCC1	SK-MEL-2	inactive
CC(C)/C(Cl)=N/OC(=O)Nc1ccc(F)c(Cl)c1	SK-MEL-2	inactive
C/C(=N\Nc1nc2ccccc2n1C)c1cc2ccccc2cn1	SK-MEL-2	active

====

System: SK-MEL-28
PROCEDURE DETAILS: NCI tumour cell line growth inhibition, 48 h
Calls of active or inactive are those of the source. Rule as the data show it: active = GI50 up to about 1.1 µM and inactive = higher.
METRIC: GI50

>>> print(df.to_string())
                                   compound       measured_value
0  COC(=O)/C=C(\S/C(=C(/c1ccc(OC)cc1)n1cc(C(=O)OC)c(C(=O)OC)n1)c1ccc(OC)cc1)C(=O)OC   3.08 µM (inactive)
1  CCCCSc1nsc(N(C(=O)c2ccccc2)C(=O)c2ccccc2)n1   40.2 µM (inactive)
2  CCCC[C@H]1C(=O)O[C@H](C)[C@H](NC(=O)c2cccc(NC=O)c2O)C(=O)O[C@@H](C)[C@@H]1OC(=O)CC(C)C [ANTIMYCIN A3]   6.73 µM (inactive)
3  Cc1ccc(OCC2=NN3C(=O)/C(=C\c4ccc([N+](=O)[O-])o4)SC3N2)cc1 (stereo unspecified)   12.7 µM (inactive)
4  CCOC(=O)C(Cc1ccc(N(CCCl)CCCl)cc1)NC(=O)CCCN1C(=O)CN=C(c2ccccc2)c2cc(Cl)ccc21 (stereo unspecified)   3.03 µM (inactive)
5              Cc1cc2cc3c(O)nc(O)nc3nc2cc1C  > 100 µM (inactive)

====

Overview of reported GI50 across a group of compounds:
Tested on: OVCAR-3
PROCEDURE DETAILS: NCI tumour cell line growth inhibition, 48 h
Active and inactive are the calls of the source. Rule as the data show it: active = GI50 up to about 1.1 µM and inactive = higher.
METRIC: GI50

>>> df
                                    compound  target_or_system       measured_value
 0  CCOc1c(OC)cc(C2c3cc4c(c(OCC)c3CC3COC(=O)C32)OCO4)cc1OC (stereo unspecified)           OVCAR-3     1.12 µM (active)
 1           Nn1c(S)nnc1C12CC3CC(CC(C3)C1)C2           OVCAR-3  > 100 µM (inactive)
 2  C#CCn1c(=O)c(C)cn(/C(=C/C(=O)OCC)C(=O)OCC)c1=O           OVCAR-3   7.16 µM (inactive)
 3  COc1ccc(Nc2nc3ccc(C(F)(F)F)cc3nc2-c2ccccc2)cc1OC           OVCAR-3   54.7 µM (inactive)
 4  CC(=O)CN/C(C)=N/Nc1ccc([N+](=O)[O-])cc1[N+](=O)[O-]           OVCAR-3  > 100 µM (inactive)
 5  Cc1sc2nc3n(sc4nc5sc(C)c(C)c5c(=O)n43)c(=O)c2c1C           OVCAR-3  > 100 µM (inactive)
 6  Cn1cnc([N+](=O)[O-])c1Sc1n[nH]c(-c2ccc(Cl)cc2)n1           OVCAR-3   18.1 µM (inactive)
 7  Cc1ccc(CC(Cc2ccccc2C)C(=O)O)c(C(=O)O)c1 (stereo unspecified)           OVCAR-3  > 100 µM (inactive)
 8     CC1=Nn2c(nnc2-c2ccc(Cl)cc2)NC(C)(C)C1           OVCAR-3  > 100 µM (inactive)
 9  CC(O)CNC(=O)C(C)Oc1ccc(OCC2CCCCC2)cc1 (stereo unspecified)           OVCAR-3  > 100 µM (inactive)
10  CCc1ccc(/C=C/C(=O)C2CN(CC)CCC2(O)/C=C/c2ccc(CC)cc2)cc1 (stereo unspecified)           OVCAR-3   1.71 µM (inactive)
11  O=C1CSC2(CC(/C=C/c3cccc(Br)c3)=NN2c2cccc(S(=O)(=O)O)c2)N1c1nc2ccccc2s1 (stereo unspecified)           OVCAR-3  > 100 µM (inactive)
12        CCOC(=O)CCc1cc(=O)oc2cc(O)cc(O)c12           OVCAR-3  > 100 µM (inactive)
13       COc1cc(OC)c(Oc2cccc(OC)c2OC)c(OC)c1           OVCAR-3  > 100 µM (inactive)
14  Cc1cc(C)c(-c2noc(-c3ccc(Cl)cc3)c2C2=NCCCN2)c(C)c1           OVCAR-3     28 µM (inactive)
15  O=P1(N(CCCl)CCCl)Oc2c(Cl)cc(Cl)c(Cl)c2Cc2c(Cl)c(Cl)cc(Cl)c2O1           OVCAR-3   45.2 µM (inactive)
16  CCN(CC)c1ccc(/C=C/C2=NN(c3cccc(S(=O)(=O)O)c3)C3(C2)C(Cl)C(=O)N3c2nc3ccccc3s2)cc1 (stereo unspecified)           OVCAR-3   4.11 µM (inactive)
17       CN(C)CCNC(=O)c1cc([N+](=O)[O-])cn1C           OVCAR-3  > 100 µM (inactive)
18  CSC[S+]([O-])C[C@H](CO)NC(=O)/C=C/c1c(C)[nH]c(=O)[nH]c1=O (stereo partly specified)           OVCAR-3   1.13 µM (inactive)
19              Cc1cc2cc3c(O)nc(O)nc3nc2cc1C           OVCAR-3  > 100 µM (inactive)
20  Cc1ccc(C2(N3CCCC3)OC(C)(C)c3cccc4cccc2c34)cc1 (stereo unspecified)           OVCAR-3   14.9 µM (inactive)

====

Overview of reported GI50 across a group of compounds:
Test system: MDA-MB-435
PROCEDURE DETAILS: NCI tumour cell line growth inhibition, 48 h
Activity calls are given as the source filed them. Rule as the data show it: active = GI50 up to about 1.1 µM and inactive = higher.

COMPOUND	GI50
Cn1c(=O)c2c(-c3ccccc3)onc2n(C)c1=O	44.5 µM (inactive)
CCOC(=O)C1(Cc2c[nH]c3ccccc23)C(O)CCCN1C(C)=O (stereo not given)	> 100 µM (inactive)
CC1C(=O)CC[C@@]2(C)C(=O)CCCC12O (stereo not given in full)	> 100 µM (inactive)
O=Cc1cn(CCCCCCCCCCCCn2cc(C=O)c3ccccc32)c2ccccc12	5.22 µM (inactive)
CCCCNc1nc(SC)nc2[nH]cnc12	> 100 µM (inactive)
CCc1ccc(/C=C/C(=O)C2CN(CC)CCC2(O)/C=C/c2ccc(CC)cc2)cc1 (stereo not given)	1.88 µM (inactive)
C=C1C(=O)OC2/C=C(\CO)C3OC3C3OC3(C)CC(OC(=O)/C(=C/C)CO)C12 (stereo not given)	53.8 µM (inactive)
CCCCCCNC(=O)c1cc(CCc2cc(O)ccc2O)ccc1O	3.61 µM (inactive)
OCCN(/N=C\c1ccc2ccccc2c1)C1=NCCN1	16.9 µM (inactive)
C=C1C[C@H](O)[C@H](Br)C(C)(C)C12CCC(C)(Cl)C(Br)C2 (stereo not given in full)	2.3 µM (inactive)
CC[C@]1(Cc2ccc(OC)c(OC)c2)[C@@H]2C[C@@H](C3OCCO3)ON2O[C@H](OC2CCCC2(c2ccccc2)c2ccccc2)[C@@H]1OC(C)=O (stereo not given in full)	21.5 µM (inactive)
CC(=O)OCC1OC(n2c3c(cc(C#N)c2=S)CCCCC3)C(OC(C)=O)C(OC(C)=O)C1OC(C)=O (stereo not given)	> 100 µM (inactive)
CC(C)=CC[C@]12CCN[C@H]1N(S(=O)(=O)c1ccccc1)c1ccccc12	16.3 µM (inactive)
CCCCP(CCCC)(CCCC)=C(C(=O)OC)C(C(=O)OC)=C1SC(C(=O)OC)=C(C(=O)OC)S1	14.8 µM (inactive)
O=C(NNC(=O)c1cc2ccccc2[nH]1)c1cc2ccccc2[nH]1	> 100 µM (inactive)
C[N+]12C=CC=C1C(N1CCCC1)c1scc(-c3ccc(F)cc3)c12 (stereo not given)	30.6 µM (inactive)
COc1ccc2cc(CN3CCC(C4CCNCC4)CC3)ccc2c1	1.91 µM (inactive)
O=C(Oc1c(Cl)cc(C2(c3cc(Cl)c(OC(=O)c4ccccc4)c(Cl)c3)CCCCC2)cc1Cl)c1ccccc1	10.1 µM (inactive)
O=C1Cc2c([nH]c3ccc([N+](=O)[O-])cc23)-c2ccccc2N1	0.499 µM (active)
CC(C)(C)c1ccc(-c2nnc(-c3cc(C#N)cc(-c4nnc(-c5ccc(C(C)(C)C)cc5)o4)c3)o2)cc1	> 100 µM (inactive)
